Target: Wee1-like protein kinase (Homo sapiens)
Sequence (P30291 whole entry): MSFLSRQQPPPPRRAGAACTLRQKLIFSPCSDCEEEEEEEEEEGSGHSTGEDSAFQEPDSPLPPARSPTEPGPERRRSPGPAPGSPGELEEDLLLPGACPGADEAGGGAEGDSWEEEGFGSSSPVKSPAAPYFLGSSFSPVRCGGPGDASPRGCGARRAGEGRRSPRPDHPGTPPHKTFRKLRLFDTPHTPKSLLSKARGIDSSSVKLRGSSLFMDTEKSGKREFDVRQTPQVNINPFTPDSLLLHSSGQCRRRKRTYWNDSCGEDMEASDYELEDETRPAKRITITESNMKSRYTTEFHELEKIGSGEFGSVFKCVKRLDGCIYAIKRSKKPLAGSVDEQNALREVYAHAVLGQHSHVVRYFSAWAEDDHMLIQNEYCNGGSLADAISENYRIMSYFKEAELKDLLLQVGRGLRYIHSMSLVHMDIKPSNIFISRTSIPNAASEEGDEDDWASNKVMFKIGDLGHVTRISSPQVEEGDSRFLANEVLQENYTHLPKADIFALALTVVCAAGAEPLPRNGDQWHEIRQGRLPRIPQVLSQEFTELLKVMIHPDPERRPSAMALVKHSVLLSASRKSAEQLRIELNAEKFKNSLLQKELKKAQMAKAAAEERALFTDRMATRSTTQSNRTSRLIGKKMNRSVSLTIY
Assay: Wee1 Enzymatic Activity Inhibition Assay
List of EC50 values.

Look up EC50 with Wee1-like protein kinase (Homo sapiens) for this molecule: `Cn1c2nc(Nc3ccc(N4CCN(C(=O)c5cc(Cn6c(=O)[nH]c(=O)c7c(F)cccc76)ccc5F)CC4)cc3)ncc2c(=O)n1-c1ccccn1`
> 1000 nM

Look up EC50 with Wee1-like protein kinase (Homo sapiens) for this molecule: `C=CCn1c(=O)c2cnc(Nc3ccc(N4CCN(Cc5ccc(-c6[nH]c7cc(F)cc8c7c6CCNC8=O)cc5)CC4)cc3)nc2n1-c1ccccn1`
< 10 nM

Look up EC50 with Wee1-like protein kinase (Homo sapiens) for this molecule: `Cn1c(=O)c2cnc(Nc3ccc(N4CCN(Cc5cc(Cc6n[nH]c(=O)c7ccccc67)ccc5F)CC4)cc3)nc2n1-c1cccc(C(C)(C)O)n1`
< 10 nM

* * *

Biological target: Wee1-like protein kinase (Homo sapiens)
Assay: Wee1 Enzymatic Activity Inhibition Assay
readout name: EC50

- compound: "C=CCn1c(=O)c2cnc(Nc3ccc(N4CCN(C(=O)c5cc(Cn6c(=O)[nH]c(=O)c7c(F)cccc76)ccc5F)CC4)cc3)nc2n1-c1cccc(C(C)(C)O)n1 [US20250270212, Compound 16]"
  result: "< 0.01 µM"

Look up EC50 with Wee1-like protein kinase (Homo sapiens) for this compound: Cn1c2nc(Nc3ccc(N4CCN(C(=O)c5cc(Cc6n[nH]c(=O)c7ccccc67)ccc5F)CC4)cc3)ncc2c(=O)n1-c1ccccn1 [US20250270212, Compound 12]
> 1 µM

Look up EC50 with Wee1-like protein kinase (Homo sapiens) for this compound: C=CCn1c(=O)c2cnc(NC3CCN(C(=O)c4cc(Cc5n[nH]c(=O)c6ccccc56)ccc4F)CC3)nc2n1-c1cccc(C(C)(C)O)n1 [US20250270212, Compound 4]
> 1 µM

Look up EC50 with Wee1-like protein kinase (Homo sapiens) for this compound: C=CCn1c(=O)c2cnc(NCCNC(=O)c3cc(Cc4n[nH]c(=O)c5ccccc45)ccc3F)nc2n1-c1cccc(C(C)(C)O)n1 [US20250270212, Compound 6]
> 1 µM

Look up EC50 with Wee1-like protein kinase (Homo sapiens) for this compound: Cn1c2nc(Nc3ccc(N4CCC(c5nc6cccc(C(N)=O)c6[nH]5)CC4)cc3)ncc2c(=O)n1-c1ccccn1 [US20250270212, Compound 91]
> 1 µM

Look up EC50 with Wee1-like protein kinase (Homo sapiens) for this compound: Cn1c(=O)c2cnc(N3CCN(C(=O)c4cc(Cc5n[nH]c(=O)c6ccccc56)ccc4F)CC3)nc2n1-c1ccccn1 [US20250270212, Compound 5]
> 1 µM

Look up EC50 with Wee1-like protein kinase (Homo sapiens) for this compound: Cn1c(=O)c2cnc(Nc3ccc(N4CCN(C(=O)c5cc(Cc6n[nH]c(=O)c7ccccc67)ccc5F)CC4)cc3)nc2n1-c1cccc(C(C)(C)O)n1 [US20250270212, Compound 7]
< 0.01 µM

Look up EC50 with Wee1-like protein kinase (Homo sapiens) for this compound: C=CCn1c(=O)c2cnc(Nc3ccc(N4CCN(C(=O)c5cc(Cc6n[nH]c(=O)c7ccccc67)ccc5F)CC4)cc3)nc2n1-c1cccc(C(C)(C)O)c1 [US20250270212, Compound 1]
< 0.01 µM

Look up EC50 with Wee1-like protein kinase (Homo sapiens) for this compound: C=CCn1c(=O)c2cnc(N3CCN(C(=O)c4cc(Cc5n[nH]c(=O)c6ccccc56)ccc4F)CC3)nc2n1-c1cccc(C(C)(C)O)n1 [US20250270212, Compound 2]
> 1 µM

Look up EC50 with Wee1-like protein kinase (Homo sapiens) for this compound: C=CCn1c(=O)c2cnc(Nc3ccc(N4CCN(Cc5cc(Cn6c(=O)[nH]c(=O)c7c(F)cccc76)ccc5F)CC4)cc3)nc2n1-c1cccc(C(C)(C)O)n1 [US20250270212, Compound 34]
< 0.01 µM

Look up EC50 with Wee1-like protein kinase (Homo sapiens) for this compound: C=CCn1c(=O)c2cnc(NC3CCN(Cc4ccc(-c5[nH]c6cc(F)cc7c6c5CCNC7=O)cc4)CC3)nc2n1-c1cccc(C(C)(C)O)n1 [US20250270212, Compound 47]
> 1 µM

Look up EC50 with Wee1-like protein kinase (Homo sapiens) for this compound: C=CCn1c(=O)c2cnc(Nc3ccc(N4CCN(C(=O)c5cc(Cn6c(=O)[nH]c(=O)c7c(F)cccc76)ccc5F)CC4)cc3)nc2n1-c1ccccn1 [US20250270212, Compound 28]
< 0.01 µM

Look up EC50 with Wee1-like protein kinase (Homo sapiens) for this compound: Cn1c(=O)c2cnc(Nc3ccc(N4CCCC(c5nc6cccc(C(N)=O)c6[nH]5)C4)cc3)nc2n1-c1ccccn1 (stereo not drawn) [US20250270212, Compound 96]
< 0.01 µM
